TEST PROTOCOL: Multicenter, open-label, Phase 1a/b study of HC-7366 in subjects with advanced solid tumors (safety, PK)
Type: in vivo
TEST SETTINGS: human, plasma, po, 20 mg, human, multiple once daily oral 20 mg (N = 3), Cycle 1 Day 21, median
MEASURED PROPERTY: Tmax (h)
Kindly provide the numeric value in h only, without the unit symbol.

Exercise: Determine its reported Tmax: `CNC(=O)c1ncn2cc(-c3c(F)ccc(NS(=O)(=O)c4cc(Cl)cnc4OC)c3F)ncc12`
Key: 2

---

TEST PROTOCOL: Pharmacokinetics of HC-7366 in male and female beagle dogs following IV and oral administration of HC-7366-K (plasma and urine, LC-MS/MS)
Format: in vivo, Beagle Dog
TEST SETTINGS: plasma; female beagle dog, oral 10 mg/kg; read-out: Mean oral bioavailability (FPO)
MEASURED PROPERTY: bioavailability (%)
Kindly provide the numeric value in % only, without the unit symbol.

Exercise: Determine its reported bioavailability: CNC(=O)c1ncn2cc(-c3c(F)ccc(NS(=O)(=O)c4cc(Cl)cnc4OC)c3F)ncc12 [HC-7366-K]
Key: 84

---

TEST PROTOCOL: Pharmacokinetics of HC-7366 in male and female beagle dogs following IV and oral administration of HC-7366-K (plasma and urine, LC-MS/MS)
Format: in vivo, Beagle Dog
TEST SETTINGS: plasma; male beagle dog, oral 10 mg/kg; read-out: Mean oral bioavailability (FPO)
MEASURED PROPERTY: bioavailability
Kindly report the value followed by its unit.

Exercise: Determine its reported bioavailability: CNC(=O)c1ncn2cc(-c3c(F)ccc(NS(=O)(=O)c4cc(Cl)cnc4OC)c3F)ncc12 [HC-7366-K]
Key: 83%

---

TEST PROTOCOL: Multicenter, open-label, Phase 1a/b study of HC-7366 in subjects with advanced solid tumors (safety, PK)
Assay type: in vivo
TEST SETTINGS: human, plasma, po, 75 mg, human, single oral dose 75 mg (N = 10), Cycle 1 Day 1, geometric mean; read-out: Vz/F
MEASURED PROPERTY: Vd/F (L)
Kindly provide the numeric value in L only, without the unit symbol.

Exercise: Determine its reported Vd/F: CNC(=O)c1ncn2cc(-c3c(F)ccc(NS(=O)(=O)c4cc(Cl)cnc4OC)c3F)ncc12 [HC-7366]
Key: 11.2

---

TEST PROTOCOL: Multicenter, open-label, Phase 1a/b study of HC-7366 in subjects with advanced solid tumors (safety, PK)
Format: in vivo
TEST SETTINGS: human, plasma, po, 125 mg, human, multiple once daily oral 125 mg (N = 1), Cycle 1 Day 21; read-out: Vz/F
MEASURED PROPERTY: Vd/F
Kindly report the value followed by its unit.

Exercise: Determine its reported Vd/F: `CNC(=O)c1ncn2cc(-c3c(F)ccc(NS(=O)(=O)c4cc(Cl)cnc4OC)c3F)ncc12`
Key: 7.4 L

---

TEST PROTOCOL: Pharmacokinetics of HC-7366 in male and female beagle dogs following IV and oral administration of HC-7366-K (plasma and urine, LC-MS/MS)
Type: in vivo, Beagle Dog
TEST SETTINGS: Female Beagle dog, PO 50 mg/kg, plasma, mean n = 3
MEASURED PROPERTY: AUC(0-inf) (µg·h/mL)
Kindly provide the numeric value in µg·h/mL only, without the unit symbol.

Exercise: Determine its reported AUC(0-inf): `CNC(=O)c1ncn2cc(-c3c(F)ccc(NS(=O)(=O)c4cc(Cl)cnc4OC)c3F)ncc12`
Key: 5370

---

TEST PROTOCOL: Multicenter, open-label, Phase 1a/b study of HC-7366 in subjects with advanced solid tumors (safety, PK)
Type: in vivo
TEST SETTINGS: human, plasma, po, 10 mg, human, multiple once daily oral 10 mg (N = 3), Cycle 1 Day 21, geometric mean; read-out: Vz/F
MEASURED PROPERTY: Vd/F (L)
Kindly provide the numeric value in L only, without the unit symbol.

Exercise: Determine its reported Vd/F: `CNC(=O)c1ncn2cc(-c3c(F)ccc(NS(=O)(=O)c4cc(Cl)cnc4OC)c3F)ncc12`
Key: 6.55

---

TEST PROTOCOL: Multicenter, open-label, Phase 1a/b study of HC-7366 in subjects with advanced solid tumors (safety, PK)
Assay type: in vivo
TEST SETTINGS: human, plasma, po, 10 mg, human, single oral dose 10 mg (N = 3), Cycle 1 Day 1, geometric mean; read-out: AUC0-24
MEASURED PROPERTY: AUC(0-t) (ng·h/mL)
Kindly provide the numeric value in ng·h/mL only, without the unit symbol.

Exercise: Determine its reported AUC(0-t): CNC(=O)c1ncn2cc(-c3c(F)ccc(NS(=O)(=O)c4cc(Cl)cnc4OC)c3F)ncc12 [HC-7366]
Key: 15100

---

TEST PROTOCOL: Multicenter, open-label, Phase 1a/b study of HC-7366 in subjects with advanced solid tumors (safety, PK)
Format: in vivo
TEST SETTINGS: human, plasma, po, 75 mg, human, single oral dose 75 mg (N = 10), Cycle 1 Day 1, geometric mean
MEASURED PROPERTY: half-life (h)
Kindly provide the numeric value in h only, without the unit symbol.

Exercise: Determine its reported half-life: CNC(=O)c1ncn2cc(-c3c(F)ccc(NS(=O)(=O)c4cc(Cl)cnc4OC)c3F)ncc12 [HC-7366]
Key: 15.2

---

TEST PROTOCOL: Pharmacokinetics of HC-7366 in male and female beagle dogs following IV and oral administration of HC-7366-K (plasma and urine, LC-MS/MS)
Assay type: in vivo, Beagle Dog
TEST SETTINGS: plasma; female beagle dog, oral 10 mg/kg, suspension of Form III
MEASURED PROPERTY: Cmax

Exercise: Determine its reported Cmax: `CNC(=O)c1ncn2cc(-c3c(F)ccc(NS(=O)(=O)c4cc(Cl)cnc4OC)c3F)ncc12`
Key: 87 µg/mL

---

TEST PROTOCOL: Pharmacokinetics of HC-7366 in male and female beagle dogs following IV and oral administration of HC-7366-K (plasma and urine, LC-MS/MS)
Type: in vivo, Beagle Dog
TEST SETTINGS: plasma; female beagle dog, oral 150 mg/kg, suspension of Form III
MEASURED PROPERTY: Cmax (µg/mL)
Kindly provide the numeric value in µg/mL only, without the unit symbol.

Exercise: Determine its reported Cmax: `CNC(=O)c1ncn2cc(-c3c(F)ccc(NS(=O)(=O)c4cc(Cl)cnc4OC)c3F)ncc12`
Key: 350

---

TEST PROTOCOL: Pharmacokinetics of HC-7366 in male and female beagle dogs following IV and oral administration of HC-7366-K (plasma and urine, LC-MS/MS)
Assay type: in vivo, Beagle Dog
TEST SETTINGS: plasma; male beagle dog, oral 50 mg/kg, suspension of Form III
MEASURED PROPERTY: Cmax

Exercise: Determine its reported Cmax: CNC(=O)c1ncn2cc(-c3c(F)ccc(NS(=O)(=O)c4cc(Cl)cnc4OC)c3F)ncc12 [HC-7366-K]
Key: 227 µg/mL

---

TEST PROTOCOL: Multicenter, open-label, Phase 1a/b study of HC-7366 in subjects with advanced solid tumors (safety, PK)
Type: in vivo
TEST SETTINGS: human, plasma, po, 20 mg, human, single oral dose 20 mg (N = 3), Cycle 1 Day 1, geometric mean; read-out: AUC0-last
MEASURED PROPERTY: AUC(0-t) (ng·h/mL)
Kindly provide the numeric value in ng·h/mL only, without the unit symbol.

Exercise: Determine its reported AUC(0-t): CNC(=O)c1ncn2cc(-c3c(F)ccc(NS(=O)(=O)c4cc(Cl)cnc4OC)c3F)ncc12 [HC-7366]
Key: 28700

---

TEST PROTOCOL: Multicenter, open-label, Phase 1a/b study of HC-7366 in subjects with advanced solid tumors (safety, PK)
Assay type: in vivo
TEST SETTINGS: human, plasma, po, 125 mg, human, multiple once daily oral 125 mg (N = 1), Cycle 1 Day 21
MEASURED PROPERTY: Cmax

Exercise: Determine its reported Cmax: CNC(=O)c1ncn2cc(-c3c(F)ccc(NS(=O)(=O)c4cc(Cl)cnc4OC)c3F)ncc12 [HC-7366]
Key: 38200 ng/mL

---

TEST PROTOCOL: Pharmacokinetics of HC-7366 in male and female beagle dogs following IV and oral administration of HC-7366-K (plasma and urine, LC-MS/MS)
Type: in vivo, Beagle Dog
TEST SETTINGS: plasma; male beagle dog, oral 10 mg/kg, suspension of Form III
MEASURED PROPERTY: Cmax
Kindly report the value followed by its unit.

Exercise: Determine its reported Cmax: `CNC(=O)c1ncn2cc(-c3c(F)ccc(NS(=O)(=O)c4cc(Cl)cnc4OC)c3F)ncc12`
Key: 94.3 µg/mL

---

TEST PROTOCOL: Pharmacokinetics of HC-7366 in male and female beagle dogs following IV and oral administration of HC-7366-K (plasma and urine, LC-MS/MS)
Format: in vivo, Beagle Dog
TEST SETTINGS: dog, plasma; Male Beagle dogs, PO 10 mg/kg, range n = 3; read-out: tmax
MEASURED PROPERTY: Tmax
Kindly report the value followed by its unit.

Exercise: Determine its reported Tmax: `CNC(=O)c1ncn2cc(-c3c(F)ccc(NS(=O)(=O)c4cc(Cl)cnc4OC)c3F)ncc12`
Key: 30 min
